Measured IC50 values are reported for all entries that follow.
- test target: β-catenin/BCL9 PPI (Homo sapiens, UniProt P35222)
- Construct: 40 nM His6-tagged FL-β-catenin
- Sequence (P35222 1-781): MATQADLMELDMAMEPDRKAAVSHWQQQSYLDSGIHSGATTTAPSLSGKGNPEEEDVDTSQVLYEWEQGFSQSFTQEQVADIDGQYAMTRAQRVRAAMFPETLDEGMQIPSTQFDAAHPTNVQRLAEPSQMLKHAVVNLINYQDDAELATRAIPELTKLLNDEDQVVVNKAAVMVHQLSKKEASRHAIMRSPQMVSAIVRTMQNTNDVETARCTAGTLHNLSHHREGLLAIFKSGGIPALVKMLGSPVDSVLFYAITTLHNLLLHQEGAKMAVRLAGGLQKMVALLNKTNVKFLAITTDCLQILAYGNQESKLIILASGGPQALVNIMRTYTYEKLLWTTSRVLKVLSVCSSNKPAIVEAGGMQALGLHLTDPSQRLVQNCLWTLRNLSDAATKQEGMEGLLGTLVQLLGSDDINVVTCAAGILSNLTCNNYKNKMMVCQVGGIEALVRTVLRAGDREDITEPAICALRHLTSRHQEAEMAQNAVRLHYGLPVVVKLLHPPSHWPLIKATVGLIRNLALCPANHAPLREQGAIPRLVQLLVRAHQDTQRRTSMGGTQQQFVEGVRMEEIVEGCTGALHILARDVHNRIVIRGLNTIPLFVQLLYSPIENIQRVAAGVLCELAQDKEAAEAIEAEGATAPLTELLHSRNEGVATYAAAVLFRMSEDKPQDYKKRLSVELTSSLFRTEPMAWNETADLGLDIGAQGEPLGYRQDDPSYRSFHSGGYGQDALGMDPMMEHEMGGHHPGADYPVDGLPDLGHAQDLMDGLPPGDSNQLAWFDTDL
- protocol summary: AlphaScreen competitive inhibition assay of β-catenin/BCL9 PPI
- settings: AlphaScreen, 5 nM biotinylated BCL9, 40 nM His6-tagged FL-β-catenin, mean ± SD
- Protocol: For the competitive inhibition assays of β-catenin/BCL9 PPI, the negative control (equivalent to 0% inhibition) refers to 5.0 nM biotinylated BCL9, 40 nM His6-tagged FL-β-catenin, and 10 μg/mL of donor and acceptor beads in a final volume of 25 μL of assay buffer, but no tested inhibitor present. The positive control (equivalent to 100% inhibition) refers to 5.0 nM biotinylated BCL9 and 10 μg/mL of donor and acceptor beads in a final volume of 25 μL of assay buffer. […]
Reply numerically in nM, unit not repeated.

For orientation, consider the following solved cases.
>>> result_number("CCC(C)[C@@H](CN(CC(=O)N[C@@H](CC(C)C)CN(CC(=O)N[C@@H](CC(C)C)CN(CC(N)=O)S(=O)(=O)Cc1ccccc1)S(=O)(=O)CC(C)C)S(C)(=O)=O)NC(=O)CN(C[C@H](CCCNC(=N)N)NC(=O)CN(C[C@H](C)NC(=O)CN(C[C@@H](NC(=O)CN(C[C@H](CC(C)C)NC(=O)CN(C[C@H](CCCNC(=N)N)NC(=O)CN(C[C@H](CCCNC(=N)N)NC(=O)CN(C[C@H](CCC(=O)O)NC(C)=O)S(=O)(=O)CCN)S(C)(=O)=O)S(C)(=O)=O)S(=O)(=O)CCN)C(C)O)S(=O)(=O)CC(C)C)S(=O)(=O)CCN)S(=O)(=O)CC(C)C (some centres unmarked) [Peptide 5]")
2710
>>> result_number("CCC(C)[C@@H](CN(CC(=O)N[C@@H](CC(C)C)CN(CC(=O)N[C@@H](CC(C)C)CN(CC(N)=O)S(=O)(=O)Cc1ccccc1)S(=O)(=O)CC(C)C)S(C)(=O)=O)NC(=O)CN(C[C@H](CCCNC(=N)N)NC(=O)CN(C[C@H](CC(C)C)NC(=O)CN(C[C@@H](NC(=O)CN(C[C@H](CC(C)C)NC(=O)CN(C[C@H](CCCNC(=N)N)NC(=O)CN(C[C@H](CCCNC(=N)N)NC(=O)CN(C[C@H](CCC(=O)O)NC(C)=O)S(=O)(=O)CCN)S(C)(=O)=O)S(C)(=O)=O)S(=O)(=O)CCN)C(C)O)S(=O)(=O)CC(C)C)S(=O)(=O)CCN)S(C)(=O)=O (some centres unmarked) [Peptide 8]")
8010
>>> result_number("CCC(C)[C@@H](CN(CC(=O)N[C@@H](CC(C)C)CN(CC(=O)N[C@@H](C)CN(CC(N)=O)S(=O)(=O)Cc1ccccc1)S(=O)(=O)CC(C)C)S(C)(=O)=O)NC(=O)CN(C[C@H](CCCNC(=N)N)NC(=O)CN(C[C@H](CC(C)C)NC(=O)CN(C[C@@H](NC(=O)CN(C[C@H](CC(C)C)NC(=O)CN(C[C@H](CCCNC(=N)N)NC(=O)CN(C[C@H](CCCNC(=N)N)NC(=O)CN(C[C@H](CCC(=O)O)NC(C)=O)S(=O)(=O)CCN)S(C)(=O)=O)S(C)(=O)=O)S(=O)(=O)CCN)C(C)O)S(=O)(=O)CC(C)C)S(=O)(=O)CCN)S(=O)(=O)CC(C)C (some centres unmarked) [Peptide 7]")
1000

Let's switch to this molecule now.
query: Recorded IC50 for CCC(C)[C@@H](CN(CC(=O)N[C@@H](CC(C)C)CN(CC(=O)N[C@@H](CC(C)C)CN(CC(N)=O)S(=O)(=O)Cc1ccccc1)S(=O)(=O)CC(C)C)S(C)(=O)=O)NC(=O)CN(C[C@H](CCCNC(=N)N)NC(=O)CN(C[C@H](CC(C)C)NC(=O)CN(C[C@@H](NC(=O)CN(C[C@H](CC(C)C)NC(=O)CN(C[C@H](CCCNC(=N)N)NC(=O)CN(C[C@H](C)NC(=O)CN(C[C@H](CCC(=O)O)NC(C)=O)S(=O)(=O)CCN)S(C)(=O)=O)S(C)(=O)=O)S(=O)(=O)CCN)C(C)O)S(=O)(=O)CC(C)C)S(=O)(=O)CCN)S(=O)(=O)CC(C)C (some centres unmarked) [Peptide 4] with β-catenin/BCL9 PPI (Homo sapiens, UniProt P35222), please?
result: 1100
